The following molecules each carry a recorded Mean weight for Estrogen receptor (Rattus norvegicus) (UniProt P06211+Q62986).
One number for each entry, in mg.

COc1ccc2c(c1)OC(c1ccc(OCCN3CCCCC3)cc1)C(c1ccccc1)=C2 (stereo not drawn)    22.6

Provide Mean weight for all items below, preserving their order.
1. Oc1ccc(C2=Cc3ccccc3OC2c2ccc(OCCN3CCCCC3)cc2)cc1 (stereo not drawn)
2. Oc1ccc(C2=Cc3ccc(O)cc3OC2c2ccc(OCCN3CCCCC3)cc2)cc1 (stereo not drawn)
3. Oc1ccc2c(c1)OC(c1ccc(OCCN3CCCCC3)cc1)C(c1ccccc1)=C2 (stereo not drawn)
4. C1=C(c2ccccc2)C(c2ccc(OCCN3CCCCC3)cc2)Oc2ccccc21 (stereo not drawn)
5. Oc1ccc(C2=Cc3ccc(O)cc3OC2c2ccc(O)cc2)cc1 (stereo not drawn)
6. O=C(c1ccc(OCCN2CCCC2)cc1)c1c(-c2ccc(O)cc2)sc2cc(O)ccc12
7. COc1ccc(C2=C(C(=O)c3ccc(OCCN4CCCC4)cc3)c3ccccc3CC2)cc1

Result:
1: 10.4; 2: 10.6; 3: 15.2; 4: 15.3; 5: 14.2; 6: 25.5; 7: 18.6

src = ChEMBL document CHEMBL1125033
